System name: T1, recombinant human TfR-1, His-tagged (Sino Biological 11020-H07H) (human, UniProt P02786 89-760)
T1 construct: bought; His-tagged; also called hTfR1; hTfR-1
T1 sequence (P02786 89-760 limits assumed): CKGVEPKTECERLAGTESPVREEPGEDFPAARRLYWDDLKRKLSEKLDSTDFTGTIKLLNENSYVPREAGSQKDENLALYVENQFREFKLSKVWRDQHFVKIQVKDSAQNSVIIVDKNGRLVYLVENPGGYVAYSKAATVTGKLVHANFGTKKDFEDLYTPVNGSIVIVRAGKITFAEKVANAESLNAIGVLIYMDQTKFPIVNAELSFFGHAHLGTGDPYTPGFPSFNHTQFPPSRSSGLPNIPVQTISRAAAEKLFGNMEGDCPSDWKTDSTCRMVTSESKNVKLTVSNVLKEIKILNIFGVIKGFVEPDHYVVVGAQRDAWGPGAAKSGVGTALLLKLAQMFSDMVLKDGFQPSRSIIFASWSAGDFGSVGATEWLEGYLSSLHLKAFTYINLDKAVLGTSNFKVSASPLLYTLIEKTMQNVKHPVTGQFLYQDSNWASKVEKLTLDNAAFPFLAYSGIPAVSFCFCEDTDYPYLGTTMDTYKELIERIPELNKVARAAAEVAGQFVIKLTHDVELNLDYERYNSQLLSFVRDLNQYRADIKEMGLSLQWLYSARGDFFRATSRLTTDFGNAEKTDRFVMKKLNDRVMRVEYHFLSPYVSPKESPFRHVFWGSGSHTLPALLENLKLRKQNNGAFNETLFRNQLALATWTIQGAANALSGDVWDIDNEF
Assay remarks: SPR, His-captured TfR1
pKd: −log10 of the molar value.
Reported property: pKd

>  <Binder>
Clone C variant 18 VNAR-hFc (Fc fusion, not shown: a dimerising Fc or GST, also called Clone C v18; Clone C var; 18) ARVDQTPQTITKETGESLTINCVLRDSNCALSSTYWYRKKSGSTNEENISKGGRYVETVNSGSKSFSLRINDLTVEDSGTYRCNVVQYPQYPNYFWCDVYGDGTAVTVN

>  <Observed measurement>
9.50

$$$$
>  <Binder>
Clone C variant 4 VNAR-hFc (Fc fusion, not shown: a dimerising Fc or GST) ARVDQTPQTITKETGESLTINCVLRDSNCALSSTYWYRKKSGSTNEENISKGGRYVETVNSGSKSFSLRINDLTVEDSGTYRCNVVQRPSYNNYFWCDVYGDGTAVTVN

>  <Observed measurement>
8.04

$$$$
>  <Binder>
Clone C variant 17 VNAR-hFc (Fc fusion, not shown: a dimerising Fc or GST) ARVDQTPQTITKETGESLTINCVLRDSNCALSSTYWYRKKSGSTNEENISKGGRYVETVNSGSKSFSLRINDLTVEDSGTYRCNVVQYPQYDNYFWCDVYGDGTAVTVN

>  <Observed measurement>
9.36

$$$$
>  <Binder>
Clone C variant 24 VNAR-hFc (Fc fusion, not shown: a dimerising Fc or GST) ARVDQTPQTITKETGESLTINCVLRDSNCALSSTYWYRKKSGSTNEENISKGGRYVETVNSGSKSFSLRINDLTVEDSGTYRCNVVQYPSWDNYFWCDVYGDGTAVTVN

>  <Observed measurement>
8.66

$$$$

Hey, just so you know, these numbers are from patent US20210403591A1.
